# Tested on: Botrytis cinerea
# EXPERIMENTAL PROTOCOL: Test E: tomato botrytis, preventive spray on tomato seedlings
# SETUP CONDITIONS: 40 ppm (marked *); 100 = 100% disease control, 0 = no control
Marks after values point to notes of the source that are not given here.
# Test E disease control rating values compiled below

COMPOUND | Test E disease control rating
Cc1ccn(-c2nc(Cl)c(-c3c(F)cccc3F)n(-c3ccccc3C)c2=O)n1 | 99* %
O=c1c(-n2cccn2)nc(Cl)c(-c2c(F)cc(F)cc2F)n1-c1ccccc1Cl | 99* %
O=c1c(-n2cccn2)nc(Cl)c(-c2c(F)cccc2F)n1Cc1ccc(F)cc1 | 100* %
Cc1ccn(-c2nc(Cl)c(-c3c(F)cccc3F)n(Cc3ccccc3F)c2=O)n1 | 99* %
O=c1c(-n2cccn2)nc(Cl)c(-c2c(F)cccc2F)n1-c1ccccc1OC(F)(F)F [compound 396] | 70* %
O=c1c(-n2cccn2)nc(Cl)c(-c2c(F)cccc2F)n1CCO | 0* %
O=c1c(-n2cccn2)nc(Cl)c(-c2c(F)cc(F)cc2F)n1Cc1ccccc1Br | 98* %
Cc1ccn(-c2nc(Cl)c(-c3c(F)cc(F)cc3F)n(-c3ccc(F)c(Cl)c3)c2=O)n1 | 99* %

###

Test B disease control rating reference
# System: Colletotrichum orbiculare
# EXPERIMENTAL PROTOCOL: Test B: cucumber Colletotrichum anthracnose, preventive spray on cucumber seedlings
# SETUP CONDITIONS: 40 ppm (marked *); 100 = 100% disease control, 0 = no control
Marks after values point to notes of the source that are not given here.
ENDPOINT NAME: Test B disease control rating

MOLECULE | DATA VALUE
Nn1c(-c2c(F)cccc2F)c(Cl)nc(-n2cccn2)c1=O | 0* %
CC(C)Cn1c(-c2cccc(C#N)c2)c(Cl)nc(-n2cncn2)c1=O | 0* %
Cc1cccc(-n2c(-c3c(F)cccc3F)c(Cl)nc(-n3cccn3)c2=O)c1 | 0* %
Cc1ccn(-c2nc(Cl)c(-c3c(F)cccc3F)n(-c3ccccc3F)c2=O)n1 | 0* %
CC[C@H](C)Cn1c(-c2ccc(F)cc2Cl)c(Br)nc(-n2ccc(C)n2)c1=O | 100* %
CC[C@H](C)Cn1c(-c2ccc(F)cc2Cl)c(Cl)nc(N2CCC=N2)c1=O | 81* %
CC[C@H](C)Cn1c(-c2ccc(F)cc2Cl)c(Cl)nc(-n2ccc(C)n2)c1=O | 100* %
O=c1c(-n2cccn2)nc(Cl)c(-c2c(F)cccc2F)n1Cc1ccccc1F [compound 336] | 0* %

###

Below: a set of entries, each annotated with reported Test G disease control rating.
# Test system: Rhizoctonia oryzae
# EXPERIMENTAL PROTOCOL: Test G: turf brown patch, preventive spray on creeping bent grass seedlings
# SETUP CONDITIONS: 40 ppm (*)
Marks after values point to notes of the source that are not given here.
ENDPOINT NAME: Test G disease control rating

COMPOUND | DATA VALUE
CC(C)Cn1c(-c2ccc(Cl)s2)c(Cl)nc(-n2cccn2)c1=O [compound 152] | 0* %
COc1cccc(-c2c(Cl)nc(-n3cccn3)c(=O)n2CC(C)C)c1 [compound 246] | 0* %
CCC(C)Cn1c(-c2ccc(F)cc2Cl)c(Cl)nc(-n2cc(Cl)cn2)c1=O (stereo not drawn) [compound 166] | 26* %
CCCCn1c(-c2c(F)cc(F)cc2F)c(Cl)nc(-c2ccccn2)c1=O [compound 240] | 0* %
CC(C)Cn1c(C(C)c2ccccc2)c(Cl)nc(-n2cccn2)c1=O (stereo not drawn) [compound 132] | 0* %
CCC(C)Cn1c(-c2c(F)cccc2F)c(Cl)nc(-n2ccc(C)n2)c1=O (stereo not drawn) [compound 66] | 95* %
Cc1ccn(-c2nc(Cl)c(-c3c(F)cccc3F)n(CC(C)C)c2=O)n1 [compound 241] | 85* %
CC(C)Cn1c(-c2ccsc2)c(Cl)nc(-n2cncn2)c1=O [compound 159] | 0* %
CCC(C)Cn1c(-c2ccc(F)cc2Cl)c(Cl)nc(-n2cc(C)cn2)c1=O (stereo not drawn) [compound 169] | 0* %
